Target: HLA A*3001 (Homo sapiens, UniProt P04439, D140H/D185E/E176W/F33S/G80R/H175R/K168Q/R138E/R41S)
Experiment: biochemical
Type: binding
Would you kindly list Normalized average relative binding affinity (ARB), HLA A*3001 for each of these sequences?

Qu. Dear colleague, I am looking for the recorded Normalized average relative binding affinity (ARB), HLA A*3001 of the following sequence: XWXXXXXXX [3064.0039]
Ans. 0.26

Qu. Dear colleague, I am looking for the recorded Normalized average relative binding affinity (ARB), HLA A*3001 of the following sequence: XEXXXXXXX [3064.0024]
Ans. 0.025

Qu. Dear colleague, I am looking for the recorded Normalized average relative binding affinity (ARB), HLA A*3001 of the following sequence: XXEXXXXXX [3064.0044]
Ans. 0.0031

Qu. Dear colleague, I am looking for the recorded Normalized average relative binding affinity (ARB), HLA A*3001 of the following sequence: XTXXXXXXX [3064.0037]
Ans. 0.77

Qu. Dear colleague, I am looking for the recorded Normalized average relative binding affinity (ARB), HLA A*3001 of the following sequence: XXHXXXXXX [3064.0047]
Ans. 0.089

Qu. Dear colleague, I am looking for the recorded Normalized average relative binding affinity (ARB), HLA A*3001 of the following sequence: XXPXXXXXX [3064.0053]
Ans. 0.0036

Qu. Dear colleague, I am looking for the recorded Normalized average relative binding affinity (ARB), HLA A*3001 of the following sequence: XAXXXXXXX [3064.0021]
Ans. 0.89

Qu. Dear colleague, I am looking for the recorded Normalized average relative binding affinity (ARB), HLA A*3001 of the following sequence: XXYXXXXXX [3064.0060]
Ans. 0.016

Qu. Dear colleague, I am looking for the recorded Normalized average relative binding affinity (ARB), HLA A*3001 of the following sequence: GXXXXXXXX [3064.0006]
Ans. 0.11

Qu. Dear colleague, I am looking for the recorded Normalized average relative binding affinity (ARB), HLA A*3001 of the following sequence: XXCXXXXXX [3064.0042]
Ans. 0.0048

Qu. Dear colleague, I am looking for the recorded Normalized average relative binding affinity (ARB), HLA A*3001 of the following sequence: XVXXXXXXX [3064.0038]
Ans. 1.0

Qu. Dear colleague, I am looking for the recorded Normalized average relative binding affinity (ARB), HLA A*3001 of the following sequence: XCXXXXXXX [3064.0022]
Ans. 0.15

Qu. Dear colleague, I am looking for the recorded Normalized average relative binding affinity (ARB), HLA A*3001 of the following sequence: DXXXXXXXX [3064.0003]
Ans. 0.0069

Qu. Dear colleague, I am looking for the recorded Normalized average relative binding affinity (ARB), HLA A*3001 of the following sequence: XHXXXXXXX [3064.0027]
Ans. 0.082

Qu. Dear colleague, I am looking for the recorded Normalized average relative binding affinity (ARB), HLA A*3001 of the following sequence: XNXXXXXXX [3064.0032]
Ans. 0.10

---

Biological target: HLA B*1503 (Homo sapiens, UniProt P01889, A329T/A93T/A95T/C349S/D201E/D98Y/E187L/E204Q/K202T/N87E/Q94N/R155S/R180L/S121R/S35A/V306I/V36M/Y140S/Y91S)
Experiment: biochemical
Where a SMILES comes first, the peptide text is derived from it.
endpoint: IC50 (nM)
Just the number please, in nM, no unit attached.

Qu. Dear colleague, I am looking for the recorded IC50 of the following molecule: CC(C)C[C@H](NC(=O)[C@H](CO)NC(=O)[C@H](CO)NC(=O)[C@@H](NC(=O)[C@H](CCC(=O)O)NC(=O)[C@@H](NC(=O)[C@H](CO)NC(=O)[C@H](CCCCN)NC(=O)[C@@H](N)CC(C)C)C(C)C)[C@@H](C)O)C(=O)O [3102.1056] (H-LKSVETSSL-OH)
Ans. 3.8

Qu. Dear colleague, I am looking for the recorded IC50 of the following molecule: CC(C)C[C@H](NC(=O)[C@@H](NC(=O)[C@@H](NC(=O)[C@H](CO)NC(=O)[C@H](CC(N)=O)NC(=O)[C@H](CCC(N)=O)NC(=O)[C@@H](N)CC(C)C)C(C)C)C(C)C)C(=O)N[C@@H](CCC(N)=O)C(=O)N[C@@H](Cc1ccccc1)C(=O)O [3102.1263] (H-LQNSVVLQF-OH)
Ans. 6.2

Qu. Dear colleague, I am looking for the recorded IC50 of the following molecule: CC[C@H](C)[C@H](NC(=O)[C@H](Cc1ccc(O)cc1)NC(=O)[C@H](CO)NC(=O)[C@@H]1CCCN1C(=O)[C@H](Cc1ccc(O)cc1)NC(=O)[C@H](CCSC)NC(=O)[C@@H](N)CO)C(=O)N[C@@H](CCC(=O)O)C(=O)N[C@@H](Cc1ccccc1)C(=O)O [3102.1196] (H-SMYPSYIEF-OH)
Ans. 0.11

Qu. Dear colleague, I am looking for the recorded IC50 of the following molecule: CC(C)[C@H](NC(=O)[C@H](Cc1ccc(O)cc1)NC(=O)[C@H](CCC(N)=O)NC(=O)[C@@H](N)Cc1ccccc1)C(=O)N[C@@H](CO)C(=O)N[C@@H](Cc1ccc(O)cc1)C(=O)N[C@@H](CO)C(=O)N[C@@H](CC(N)=O)C(=O)N[C@@H](Cc1ccccc1)C(=O)O [3102.1128] (H-FQYVSYSNF-OH)
Ans. 0.26

Qu. Dear colleague, I am looking for the recorded IC50 of the following molecule: CSCC[C@H](NC(=O)[C@H](CO)NC(=O)[C@H](Cc1ccccc1)NC(=O)[C@H](CC(N)=O)NC(=O)[C@@H](NC(=O)[C@H](CCSC)NC(=O)[C@@H](N)Cc1ccccc1)[C@@H](C)O)C(=O)N[C@H](C(=O)N[C@@H](Cc1ccc(O)cc1)C(=O)O)C(C)C [3102.1186] (H-FMTNFSMVY-OH)
Ans. 2.3

Qu. Dear colleague, I am looking for the recorded IC50 of the following molecule: CC[C@H](C)[C@H](N)C(=O)N[C@@H](CO)C(=O)N[C@H](C(=O)N[C@@H](CC(C)C)C(=O)N[C@H](C(=O)NCC(=O)N[C@@H](CO)C(=O)N[C@@H](CO)C(=O)N[C@H](C(=O)O)[C@@H](C)CC)[C@@H](C)O)C(C)C [3102.1072] (H-ISVLTGSSI-OH)
Ans. 25

Qu. Dear colleague, I am looking for the recorded IC50 of the following molecule: CC[C@H](C)[C@H](NC(=O)[C@H](Cc1c[nH]cn1)NC(=O)[C@H](CO)NC(=O)[C@@H](NC(=O)[C@@H](NC(=O)[C@H](Cc1ccc(O)cc1)NC(=O)[C@H](C)NC(=O)[C@H](CCSC)NC(=O)[C@@H](N)Cc1ccccc1)[C@@H](C)O)[C@@H](C)O)C(=O)O [3102.1071] (H-FMAYTTSHI-OH)
Ans. 7.6

Qu. Dear colleague, I am looking for the recorded IC50 of the following molecule: CC[C@H](C)[C@H](NC(=O)[C@H](CO)NC(=O)[C@H](CO)NC(=O)[C@H](CCC(=O)O)NC(=O)[C@H](CC(N)=O)NC(=O)[C@H](Cc1ccccc1)NC(=O)[C@@H](NC(=O)[C@H](CCC(N)=O)NC(=O)[C@@H](N)Cc1ccccc1)C(C)C)C(=O)O [3102.1082] (H-FQVFNESSI-OH)
Ans. 5

Qu. Dear colleague, I am looking for the recorded IC50 of the following molecule: CC(C)[C@H](NC(=O)[C@H](CC(N)=O)NC(=O)[C@@H](N)CO)C(=O)N[C@H](C(=O)N[C@@H](CS)C(=O)NCC(=O)N[C@H](C(=O)N[C@H](C(=O)N[C@@H](Cc1ccccc1)C(=O)O)[C@@H](C)O)[C@@H](C)O)C(C)C [3102.1319] (H-SNVVCGTTF-OH)
Ans. 25

Qu. Dear colleague, I am looking for the recorded IC50 of the following molecule: CC(C)C[C@H](NC(=O)[C@@H](NC(=O)[C@H](CO)NC(=O)[C@H](C)NC(=O)[C@H](Cc1ccc(O)cc1)NC(=O)[C@H](CCC(N)=O)NC(=O)[C@H](C)N)[C@@H](C)O)C(=O)N[C@@H](CO)C(=O)N[C@H](C(=O)O)C(C)C [3102.1314] (H-AQYASTLSV-OH)
Ans. 0.16

Qu. Dear colleague, I am looking for the recorded IC50 of the following molecule: CC(C)[C@H](NC(=O)[C@H](CCCCN)NC(=O)[C@@H](N)CCCCN)C(=O)N[C@@H](Cc1ccc(O)cc1)C(=O)N[C@H](C(=O)N[C@@H](Cc1ccccc1)C(=O)N[C@@H](Cc1ccccc1)C(=O)N[C@@H](CCCCN)C(=O)N[C@@H](Cc1ccccc1)C(=O)O)[C@@H](C)O [3102.1257] (H-KKVYTFFKF-OH)
Ans. 3.6

Qu. Dear colleague, I am looking for the recorded IC50 of the following molecule: CSCC[C@H](NC(=O)[C@H](CC(C)C)NC(=O)[C@H](CO)NC(=O)[C@H](CC(N)=O)NC(=O)[C@H](CC(N)=O)NC(=O)[C@H](CC(C)C)NC(=O)[C@@H](N)CS)C(=O)N[C@@H](CO)C(=O)N[C@@H](Cc1ccccc1)C(=O)O [3102.1050] (H-CLNNSLMSF-OH)
Ans. 0.77

Qu. Dear colleague, I am looking for the recorded IC50 of the following molecule: CSCC[C@H](NC(=O)[C@@H](N)[C@@H](C)O)C(=O)N[C@H](C(=O)N[C@@H](CC(N)=O)C(=O)N[C@@H](CO)C(=O)N[C@@H](CC(C)C)C(=O)N[C@H](C(=O)N[C@@H](Cc1ccc(O)cc1)C(=O)N[C@@H](Cc1ccccc1)C(=O)O)[C@@H](C)O)C(C)C [3102.1160] (H-TMVNSLTYF-OH)
Ans. 0.13

Qu. Dear colleague, I am looking for the recorded IC50 of the following molecule: C[C@@H](O)[C@H](NC(=O)[C@H](CO)NC(=O)CNC(=O)[C@H](CCCNC(=N)N)NC(=O)[C@H](CC(N)=O)NC(=O)CNC(=O)[C@@H](N)CO)C(=O)N[C@@H](CO)C(=O)N[C@@H](Cc1ccccc1)C(=O)O [3102.1101] (H-SGNRGSTSF-OH)
Ans. 25
